- experimental_parameters: buffer; pH 7.4; 200.0 µM
Reported log10 of solubility kinetic values are given for each entry in this list.
measure_name: log10 of solubility kinetic (log10 of the value in µg/mL)

>>> numeric_value("CCc1ccc(C2NC(=O)c3ccccc3O2)cc1 (stereo not given)")
0.45
>>> numeric_value("COc1ccc(NS(=O)(=O)c2ccc(C(=O)N(C)Cc3ccc(C)o3)cc2)cc1")
1.79
>>> numeric_value("O=S(=O)(Nc1ccncc1Cl)c1ccc2ccccc2c1")
1.63
>>> numeric_value("Cc1cccc(C(=O)NC(=S)N(C)C2CCCCC2)c1")
1.56
>>> numeric_value("CC(C(=O)N(C)C)N1c2cccc3cccc(c23)S1(=O)=O (stereo not given)")
1.30
>>> numeric_value("Cc1cccc(C(=O)NC2CC3CCCC(C2)N3Cc2ccccc2)c1 (stereo not given)")
1.05
>>> numeric_value("O=C(O)Cc1ccc(S(=O)(=O)Nc2ccccc2C(=O)O)cc1")
1.64
>>> numeric_value("Cc1ccc2c(c1)Cc1nc3ccccc3nc1-2")
0.28
>>> numeric_value("CCC(=NCc1cc(OC)cc(OC)c1)c1c(O)[nH]c(=O)[nH]c1=O")
1.10
>>> numeric_value("Cn1cccc1C(=O)Nc1ccc(Cl)c(S(=O)(=O)N2CCCCC2)c1")
0.94
>>> numeric_value("O=S(=O)(Cc1ccccc1)Nc1cccc(F)c1")
1.58
>>> numeric_value("COc1ccc(NC(=O)CON=CC(=O)Nc2ccc(C)cc2)c(OC)c1")
0.58
>>> numeric_value("COC(=O)c1ccc(C(=O)OC)c(NC(=O)CN2CCC(C)CC2)c1")
-0.22
>>> numeric_value("O=C(CN1CCN(c2ccc(F)cc2)CC1)c1ccc(O)cc1O")
1.10
>>> numeric_value("O=C(/C=C/c1ccc(F)cc1)c1ccc(N2CCOCC2)cc1")
0.36
>>> numeric_value("Cc1ccc(C)c(OCC(=O)N2CCc3ccccc3C2)c1")
1.35

###

- experimental_parameters: buffer; pH 7.4; 200.0 µM
Rule: solubility kinetic of 30 µg/mL or more gives satisfied; anything lower gives not satisfied.

>>> qualitative_label("CC(=O)Nc1cccc(NC(=O)CCNC(=O)c2ccccc2)c1")
"satisfied"
>>> qualitative_label("COc1ccc(S(=O)Cc2ccc(C(=O)NC3CC3)o2)cc1 (centres undefined)")
"satisfied"
>>> qualitative_label("O=C(NCCc1ccccc1)c1c(O)c2ccccc2[nH]c1=O")
"not satisfied"
>>> qualitative_label("COc1cc2ncnc(NCc3ccc(C)o3)c2cc1OC")
"satisfied"
>>> qualitative_label("CC(NC(=O)COC(=O)c1ccc([N+](=O)[O-])o1)c1ccccc1 (centres undefined)")
"satisfied"
>>> qualitative_label("O=C(O)c1cc(NS(=O)(=O)c2ccc(F)cc2)cc(NS(=O)(=O)c2ccc(F)cc2)c1")
"satisfied"
>>> qualitative_label("CCN(CC)C(=N)N1c2ccccc2CCC1C.Cl (centres undefined)")
"satisfied"
>>> qualitative_label("O=C(CSc1ccc(F)cc1)NCCc1ccc(Cl)cc1")
"not satisfied"
>>> qualitative_label("COC(=O)c1ccc(NC(=O)Nc2ccc3c(c2)OCO3)cc1")
"not satisfied"
>>> qualitative_label("Cc1ccc(/C(=N/Nc2ncnc3ccccc23)C(=O)O)cc1")
"satisfied"
>>> qualitative_label("Cc1cc(C)nc(SCc2c(F)cccc2Cl)n1")
"not satisfied"
>>> qualitative_label("COC(=O)c1cccc(Nc2nc(-c3ccncc3)nc3ccccc23)c1")
"not satisfied"
>>> qualitative_label("Cc1ccc(N)cc1S(=O)(=O)N(C)C")
"satisfied"
>>> qualitative_label("CCCSC1=C(C#N)C2(CCCCC2)C(C#N)=C(N)N1")
"satisfied"
>>> qualitative_label("COc1cccc(NC(=O)Nc2ccc(Br)cn2)c1")
"not satisfied"
>>> qualitative_label("COc1ccc(CNC(=O)COC(=O)/C=C/c2cccc(Cl)c2)cc1")
"not satisfied"
>>> qualitative_label("CC(C)(C)c1ccc(CN2C(=O)c3ccccc3S2(=O)=O)cc1")
"not satisfied"
>>> qualitative_label("NC(=O)C1CCN(CC(=O)Nc2nccs2)CC1")
"satisfied"
>>> qualitative_label("Cc1cc(C)cc(N2C(=O)CC(Sc3ccccc3C(=O)O)C2=O)c1 (centres undefined)")
"satisfied"
>>> qualitative_label("Cn1ccnc1C(OC(=O)c1ccc(Cl)cc1)C(F)(F)F (centres undefined)")
"satisfied"
>>> qualitative_label("O=C(O)CCC(=O)Nc1ccc(OCC2CCCO2)cc1 (centres undefined)")
"satisfied"
>>> qualitative_label("COc1ccc2nc(NC(=O)C3CC(=O)N(c4ccccc4)C3)sc2c1 (centres undefined)")
"not satisfied"
>>> qualitative_label("Cc1ccc(-c2c[n+](CC(=O)Nc3ccccc3)c3n2CCC3)cc1.[Cl-]")
"satisfied"

###

- experimental_parameters: buffer; pH 7.4; 200.0 µM
Each entry below lists one item and its recorded solubility kinetic value.
measure_name: solubility kinetic (mg/mL)

>>> numeric_value("OC(CNCCc1c[nH]c2ccccc12)c1ccccc1 (stereo not drawn)")
0.037
>>> numeric_value("Fc1ccc(Nc2nc(-c3ccncc3)cs2)cc1")
0.0008
>>> numeric_value("Cc1ccc(OCCNC(=O)c2ccccc2O)cc1")
0.0045
>>> numeric_value("CCOC(=O)c1c(C)[n+]([O-])c2ccc3c(non3O)c12")
0.0087
>>> numeric_value("FC(F)(F)c1ccccc1NC(=S)Nc1ccccc1")
0.0216
>>> numeric_value("Cc1ccc(NC(=O)c2ccc3c(c2)CCN3S(C)(=O)=O)cc1C")
0.002
>>> numeric_value("COc1cc(C(=O)OCC(=O)Nc2ccc(S(=O)(=O)NC3=NCCCCC3)cc2)cc(OC)c1OC")
0.0735
>>> numeric_value("COc1ccc(OCCN(C)CC(=O)Nc2ccccc2SC)cc1")
0.0212
>>> numeric_value("O=C(CC(NC(=O)c1ccccc1)c1ccccc1)NCc1ccccc1 (stereo not drawn)")
0.0041
>>> numeric_value("Cc1ccc(NC(=O)CCNC(=O)c2ccco2)cc1Cl")
0.0203
>>> numeric_value("Cn1ccsc1=NC(=O)c1ccc(Cl)c([N+](=O)[O-])c1")
0.0005
>>> numeric_value("CC(=O)c1cc(C(C)=O)c(C)[n+](C)c1C.[O-][Cl+3]([O-])([O-])[O-]")
0.0415
>>> numeric_value("CSc1cccc(N2C(=O)C3CCCN3C2=S)c1 (stereo not drawn)")
0.0362
>>> numeric_value("O=C(Nc1cccc(C(F)(F)F)c1)OCc1ccncc1")
0.0124
>>> numeric_value("O=S(=O)(NCCN1CCCC1)c1ccc(Cl)cc1")
0.0408
>>> numeric_value("CCCC(=O)Nc1cc(C)c(NC(=O)c2ccco2)cn1")
0.0428
>>> numeric_value("COc1cccc(/C=C/c2ccc3cccc(O)c3n2)c1OC")
0.0012
>>> numeric_value("Cc1ccc(OC(=O)CCC(=O)Nc2ccc(C)c(C)c2)cc1")
0.0432
>>> numeric_value("Cc1ccc(F)cc1NC(=O)N1CCN(C2c3ccccc3-c3ccccc32)CC1")
0.0049
>>> numeric_value("Cc1cc(C)c(C#N)c(Nc2ccc(F)cc2)n1")
0.0008
>>> numeric_value("O=C(Nc1ccc([N+](=O)[O-])c(NC(=O)c2cccnc2)c1)c1cccnc1")
0.0033
>>> numeric_value("CCOc1ccc(CNC(=O)Nc2ccccc2)cc1")
0.0038
>>> numeric_value("CCOC(=O)c1c(/N=C/C2C(=O)NC(=O)NC2=O)sc2c1CCC2")
0.0054
>>> numeric_value("Cc1cccc(NC(=O)C2CCCCN2S(=O)(=O)c2ccccc2)c1C (stereo not drawn)")
0.0451
>>> numeric_value("COc1ccc(C(=O)N2CCN(c3ccccn3)CC2)cc1[N+](=O)[O-]")
0.0495

###

- experimental_parameters: buffer; pH 7.4; 200.0 µM
measure_name: log10(solubility kinetic) (log10 of the value in µg/mL)

>>> numeric_value("CCCCC(CC)C1OCC(CN2CCCCC2)O1 (configuration not stated)")
0.63
>>> numeric_value("CS(=O)(=O)N1CCN(c2ccc(NC(=O)c3ccccc3)cc2)CC1")
0.00
>>> numeric_value("CNC(=S)c1cc(C(C)(C)C)c(O)c(C(C)(C)C)c1")
1.13
>>> numeric_value("O=CNc1ccc(OC(=O)c2cncc(Br)c2)cc1")
1.19
>>> numeric_value("Cc1ccc(Cn2c(CCCO)nc3ccccc32)cc1")
1.54
>>> numeric_value("CC1CN(C)C(C)C/C1=N/Oc1ccccc1[N+](=O)[O-].Cl (configuration not stated)")
1.66
>>> numeric_value("O=C(CSCc1c(Cl)cccc1Cl)Nc1cccnc1")
1.56

###

- experimental_parameters: buffer; pH 7.4; 200.0 µM
Reported solubility kinetic is given for each of the following molecules.
measure_name: solubility kinetic (µg/mL)

>>> numeric_value("COc1ccc(CCNC(=O)CSc2nc3scc(-c4ccccc4)c3c(=O)[nH]2)cc1")
2
>>> numeric_value("CN(C)c1ccc(C(=O)N2CCNC(=O)C2CC(=O)Nc2ccc(F)cc2)cc1 (configuration not stated)")
55.1
>>> numeric_value("COc1cccc(NC(=O)NCc2c(-c3ccccc3)noc2C)c1")
2.4
>>> numeric_value("Cc1ccc(C)c(C(=O)CSc2nc(C)cc(=O)[nH]2)c1")
27.5
>>> numeric_value("O=C(C(=O)N1CCOCC1)c1cn(Cc2ccccc2)c2ccccc12")
6.4
>>> numeric_value("CC(C)CN1CCN(Cc2ccc(C(F)(F)F)cc2)CC1CCO (configuration not stated)")
45.5
>>> numeric_value("CN(C)CCOC1c2ccccc2CSc2ccccc21.O=CO (configuration not stated)")
46.7
>>> numeric_value("CCOC(=O)c1c(NC(=O)Nc2ccc(C)cc2)sc2c1CCN(C)C2")
1.5
>>> numeric_value("COc1ccc(NC(=O)CSCC(=O)N=c2sccn2C)cc1")
49.9
>>> numeric_value("COc1cccc(OC)c1OCC(=O)Nc1ccc(S(=O)(=O)N2CCCC2)cc1")
2.6
>>> numeric_value("O=C1c2ccccc2C(=O)N1CCOc1ccccc1Cl")
3.5
>>> numeric_value("COc1cc2c(cc1OC)C(C)N(C(=O)Nc1ccc(F)cc1)CC2 (configuration not stated)")
18.4
>>> numeric_value("CCOC(=O)C1CN(S(=O)(=O)c2cc(OC)ccc2OC)C1")
48.8
>>> numeric_value("Cc1ccccc1N1CCN(Cc2ccc([N+](=O)[O-])o2)CC1")
34.3
>>> numeric_value("Cc1ccc(S(=O)(=O)N2CCOCC2)cc1NC(=O)COc1ccccc1Cc1ccccc1")
4.4
>>> numeric_value("C=CCN1C(=O)C2(OCCCO2)c2cc(Cl)ccc21")
33.7
>>> numeric_value("CCOCCCNC(=S)N1CCC(C(=O)c2ccc(C)cc2)CC1")
51.8
>>> numeric_value("O=C(COC(=O)c1ccc(O)cc1)Nc1ncc(Cl)cc1Cl")
31.5
>>> numeric_value("Cc1ccc(C)c(N=Cc2c(O)c3ccccc3oc2=O)c1")
1.6
>>> numeric_value("c1ccc2c3c([nH]c2c1)C1(CCNCC1)NCC3")
34.7
>>> numeric_value("O=C(NCCc1ccccc1)C(=O)c1c[nH]c2ccccc12")
0.4
>>> numeric_value("Cl.O=C(Nc1ncccc1Cl)c1ccc2c(c1)OCCO2")
37
>>> numeric_value("O=C(COC(=O)c1ccc(Cl)nc1)Nc1ccc2c(c1)CCC2")
5.3
>>> numeric_value("O=C1Nc2ccc(Cl)cc2C(C#CC2CC2)(C(F)(F)F)O1 (configuration not stated)")
19.6
>>> numeric_value("O=C(CCc1ccccc1)Nc1nccs1")
17.9
>>> numeric_value("CC(C)NS(=O)(=O)c1ccc(OCC(=O)NC(C)c2ccccc2)cc1 (configuration not stated)")
53.1
>>> numeric_value("CN1c2ccc(Cl)cc2C(=O)NC1C1CC=CCC1 (configuration not stated)")
3.4
>>> numeric_value("CC(C)CCC(C)NC(=O)Cc1ccc(S(=O)(=O)N2CCOCC2)s1 (configuration not stated)")
47
>>> numeric_value("CC(C)(C)c1ccc(C(=O)N2CCN(Cc3ccccc3)CC2)cc1")
28.5
>>> numeric_value("Cc1ccc(S(=O)(=O)N2CC3CCCC2C3)cc1 (configuration not stated)")
34.9
>>> numeric_value("Clc1ccc(C2CSc3c4ncnc-4ncn32)cc1 (configuration not stated)")
33.9
>>> numeric_value("CN(Cc1cccs1)C(=O)c1ccc(Cl)c(S(=O)(=O)N2CCCCCC2)c1")
14.1
